system: SF-539 CNS; assay: NCI tumour cell line growth inhibition, 48 h
metric: TGI

Entry COC(=O)c1cc(/C=C\c2cc(OC)ccc2OC)ccc1OC ; TGI = > 100 µM

Entry CC1=C(N2CC2)C(=O)c2ccccc2C1=O ; TGI = 5.91 µM

Entry S=c1c2ccccc2c(=S)n2n1CC=CC2 ; TGI = > 100 µM

Entry COc1cc(-c2cc(=O)c3c(O)c(OC)c(OC)c(OC)c3o2)cc(OC)c1OC ; TGI = > 54.9 µM

Entry CCc1cc(Cc2ccc(C)c(NC(=O)C(=O)C3C(=O)NC(=O)NC3=O)c2CC)cc(C)c1NC(=O)C(=O)C1C(=O)NC(=O)NC1=O ; TGI = > 100 µM

Entry COc1ccccc1NC(=S)N/N=C/c1cccc(C)n1 ; TGI = 28.1 µM

Entry COc1ccc(CNc2nc3ccccc3nc2C(=O)O)cc1 ; TGI = > 100 µM

Entry CCCCCCCCCCCCO[P+](=O)OCCCCCCCCCCCC ; TGI = > 100 µM

Entry O=C(/C=C/c1ccc([N+](=O)[O-])cc1)c1cccc(Nc2nc(Nc3ccccc3)nc(Nc3ccccc3)n2)c1 ; TGI = 35.5 µM

Entry O=C(Nc1cccc(C(F)(F)F)c1)c1cc2ccccc2cc1O ; TGI = 70.2 µM

Entry Cc1ccc(/C=N/NS(=O)(=O)c2ccccc2)c(C)c1 ; TGI = > 100 µM

Entry CC(C)=NOC(=O)Nc1cccc2c1OCO2 ; TGI = > 100 µM

Entry O=C1N(c2ccccc2)C(=S)/C(=C/c2ccc(Cl)cc2)N1c1ccc(Cl)cc1 ; TGI = 41.2 µM

Entry O=C1/C(=C\c2ccccc2)C2OCC=C3CN4CCC56c7ccccc7N1C5C2C3CC46 (stereo unspecified) ; TGI = > 100 µM

Entry COc1ccc2c(c1)c1c3n2CCNN=C3CCC1 ; TGI = > 100 µM

Entry CCOC(=O)C(C)N1C(=O)c2ccccc2S1(=O)=O (stereo unspecified) ; TGI = > 100 µM

Entry Cc1noc(/N=C2\C=C(Nc3onc(C)c3C)C(=O)c3ccccc32)c1C ; TGI = > 100 µM

Entry CCN(CC)CCO[Si](OCCN(CC)CC)(OCCN(CC)CC)OCCN(CC)CC ; TGI = > 100 µM

Entry COc1ccc(C2=NC(c3ccc(Cl)cc3)C(c3ccc(Cl)cc3)N2C(=O)N2CCNC(=O)C2)c(OC(C)C)c1 (stereo unspecified) ; TGI = 4.01 µM

Entry CC(C)(C)[Si](C)(C)OC[C@H](/C=C\CCCC(=O)O)NC1(c2ccccc2)c2ccccc2-c2ccccc21 ; TGI = 31.3 µM

Entry S=c1nc[nH]c2c1ncn2C1CCCO1 (stereo unspecified) ; TGI = > 100 µM

Reference source for all entries: PubChem BioAssay (NCI)
